Assay: Plasma stability in fresh mouse plasma
Assay type: in vitro ADME
Conditions: 1 uM, 37° C.
Reported Plasma Stability mouse (1 hour), percent of pro-drug metabolized to riluzole values for the following compounds.
Reply with a number, then the unit it belongs to.

Worked cases, answers included:
N[C@@H](COCc1ccccc1)C(=O)Nc1nc2ccc(OC(F)(F)F)cc2s1; 52%
CCCOC(=O)Nc1nc2ccc(OC(F)(F)F)cc2s1; 0%
N[C@H](COCc1ccccc1)C(=O)Nc1nc2ccc(OC(F)(F)F)cc2s1; 25%

Q: Data request, read-out Plasma Stability mouse (1 hour), percent of pro-drug metabolized to riluzole, for "COC(=O)Nc1nc2ccc(OC(F)(F)F)cc2s1"
Result: 0%

Q: Data request, read-out Plasma Stability mouse (1 hour), percent of pro-drug metabolized to riluzole, for "CN(C)CCOC(=O)Nc1nc2ccc(OC(F)(F)F)cc2s1"
Result: 3%
